B1: library; numbered along this chain (parent)
chain: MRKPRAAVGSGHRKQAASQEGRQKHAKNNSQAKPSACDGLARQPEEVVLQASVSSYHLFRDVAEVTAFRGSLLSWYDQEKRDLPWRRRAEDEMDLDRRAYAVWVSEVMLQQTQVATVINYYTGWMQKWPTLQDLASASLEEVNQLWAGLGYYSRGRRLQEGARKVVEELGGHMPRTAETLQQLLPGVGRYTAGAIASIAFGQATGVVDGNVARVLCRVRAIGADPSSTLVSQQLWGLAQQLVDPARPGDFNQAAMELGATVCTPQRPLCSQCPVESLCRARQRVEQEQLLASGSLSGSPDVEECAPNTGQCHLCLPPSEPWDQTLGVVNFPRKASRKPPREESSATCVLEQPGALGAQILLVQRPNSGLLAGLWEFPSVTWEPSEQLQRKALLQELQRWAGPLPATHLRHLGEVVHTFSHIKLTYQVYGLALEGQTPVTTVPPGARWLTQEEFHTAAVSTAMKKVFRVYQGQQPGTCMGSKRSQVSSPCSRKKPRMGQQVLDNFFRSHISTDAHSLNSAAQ

- Variants of: B1
- Procedure Text: 8OG:A repair function score (normalized; synonymous = 0, nonsense = -1) (normalized log-likelihood score); higher = more repair activity (WT-like);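 also: cells sorted at 72 h after reporter transfection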
- Cond: with 8OG:A DNA repair reporter (GFP) in HEK-293 MUTYH KO cells
Experimental Readout: 8OG:A repair function score

Example cases with answers are listed next.
In [3]: df
Out[3]:
   mutant  value_measured
0   S490T          0.0117
1   R398A          0.0255
2   R389G          -0.385
3   V142M          -0.673
4    V53Q         -0.0248

Name the reported 8OG:A repair function score value associated with the variant `S318E`
0.0139

`G155V` , same question.
-0.116

Repeat for the following variant: `T439Y`
-0.104

Please give the result for `S507Q` too.
-0.0688

One more variant: `S507V`
-0.000918

Proceed to `Q472M`
-0.0129

What about `P174S` ?
-0.753

Also need `V207A` , thanks.
-0.78

Follow-up entry: `E106C`
-1.19

Could you do the same for `K333N` , please?
-0.205

Measured values drawn from the supplement of paper PMC11908140 for this set.
